target of assay: 5-hydroxytryptamine receptor 4 (Homo sapiens)
Sequence (Q13639 whole entry, canonical isoform): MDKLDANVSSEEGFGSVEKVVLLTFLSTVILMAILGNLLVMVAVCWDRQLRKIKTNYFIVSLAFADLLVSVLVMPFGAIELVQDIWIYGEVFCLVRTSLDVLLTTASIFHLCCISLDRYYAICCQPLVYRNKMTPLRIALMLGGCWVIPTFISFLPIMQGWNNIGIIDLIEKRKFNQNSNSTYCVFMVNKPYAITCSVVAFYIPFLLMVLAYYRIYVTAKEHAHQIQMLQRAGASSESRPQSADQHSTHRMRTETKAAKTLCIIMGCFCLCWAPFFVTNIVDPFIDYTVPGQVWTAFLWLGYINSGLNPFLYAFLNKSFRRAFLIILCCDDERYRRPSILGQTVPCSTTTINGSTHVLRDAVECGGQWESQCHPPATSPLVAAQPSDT
assay summary: Binding affinity was determined against cloned 5-hydroxytryptamine 4D receptor isoform expressed in COS-7 cells
Type: cell-based
quantity name: Ki (µM)

I. COc1cc(N)c(Cl)cc1C(=O)OCCN1CCN(c2ncccn2)CC1
II. COc1cc(N)c(Cl)cc1C(=O)OCCN1CCN(c2ccccc2)CC1
QUERY: Hi! Which is lower in terms of Ki, the first one I or the second one II ? Let me know the label of the one you choose.
RESULT: I
(I: 0.00703 µM, II: 0.032 µM)

---

target of assay: UniProt Q13639
assay summary: Binding affinity was determined against cloned 5-hydroxytryptamine 4E receptor isoform expressed in C6 glial cells incubated with 0.2 nM [3H]GR-113808
Format: cell-based
quantity name: Ki (nM)

Example compounds with recorded Ki:
>>> val("Cn1cc(C(=O)OCC2CCN(CCNS(C)(=O)=O)CC2)c2ccccc21")
0.1
>>> val("COc1cc(N)c(Cl)cc1C(=O)OCCN1CCN(c2ncccn2)CC1")
1
>>> val("COc1cc(N)c(Cl)cc1C(=O)OCCN1CCN(c2ccc(Cl)nn2)CC1")
2
>>> val("COc1cc(N)c(Cl)cc1C(=O)OCCCN1CCN(c2ccccc2)CC1")
11.5

I. COc1cc(N)c(Cl)cc1C(=O)OCCN1CCN(c2ccncc2)CC1
II. COc1cc(N)c(Cl)cc1C(=O)OCCN1CCN(c2ccncn2)CC1
III. COc1cc(N)c(Cl)cc1C(=O)OCCN1CCN(c2ccccc2OC)CC1
IV. COc1cc(N)c(Cl)cc1C(=O)OCCN1CCN(c2ccccc2F)CC1
QUERY: Would you mind ranking these compounds by ascending Ki? Provide your answer as the labels ordered per the instruction.
RESULT: I, II, IV, III
(I: 3.5 nM, II: 9.2 nM, IV: 16.8 nM, III: 64 nM)
